Molecular target: PI3Kα H1047R in T47D cells (Homo sapiens, UniProt P42336, H1047R)
Construct: endogenous in cells; host or cells: T47D
Sequence (P42336 whole entry H1047R): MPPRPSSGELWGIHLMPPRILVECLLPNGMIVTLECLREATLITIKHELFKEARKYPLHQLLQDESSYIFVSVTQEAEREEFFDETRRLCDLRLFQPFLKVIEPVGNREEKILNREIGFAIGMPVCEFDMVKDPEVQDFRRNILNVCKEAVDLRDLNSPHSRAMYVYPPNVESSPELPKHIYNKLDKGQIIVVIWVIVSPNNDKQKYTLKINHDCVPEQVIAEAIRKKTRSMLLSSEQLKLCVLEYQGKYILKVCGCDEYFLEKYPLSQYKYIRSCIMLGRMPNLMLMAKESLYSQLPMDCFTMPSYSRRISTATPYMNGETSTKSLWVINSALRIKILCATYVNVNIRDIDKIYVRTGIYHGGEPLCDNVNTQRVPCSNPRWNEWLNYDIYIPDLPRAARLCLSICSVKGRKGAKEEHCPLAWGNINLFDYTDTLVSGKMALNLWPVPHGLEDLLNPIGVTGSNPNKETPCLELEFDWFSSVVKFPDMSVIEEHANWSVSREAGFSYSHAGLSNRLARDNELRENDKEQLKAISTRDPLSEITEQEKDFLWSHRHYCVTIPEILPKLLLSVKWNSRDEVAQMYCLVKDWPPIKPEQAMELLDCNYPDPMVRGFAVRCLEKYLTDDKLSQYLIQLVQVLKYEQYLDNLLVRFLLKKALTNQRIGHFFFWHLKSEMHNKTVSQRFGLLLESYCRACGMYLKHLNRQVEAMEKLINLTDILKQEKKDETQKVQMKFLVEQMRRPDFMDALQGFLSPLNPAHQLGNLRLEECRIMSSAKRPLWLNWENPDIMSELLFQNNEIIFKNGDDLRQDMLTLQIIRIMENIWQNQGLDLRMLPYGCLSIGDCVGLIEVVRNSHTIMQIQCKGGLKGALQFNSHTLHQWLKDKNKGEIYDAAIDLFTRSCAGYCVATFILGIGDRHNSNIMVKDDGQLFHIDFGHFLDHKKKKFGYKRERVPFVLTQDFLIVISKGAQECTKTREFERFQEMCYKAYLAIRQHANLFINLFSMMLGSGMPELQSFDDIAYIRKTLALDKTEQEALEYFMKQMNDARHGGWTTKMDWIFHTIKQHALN
Sequence (P27986 whole entry partner): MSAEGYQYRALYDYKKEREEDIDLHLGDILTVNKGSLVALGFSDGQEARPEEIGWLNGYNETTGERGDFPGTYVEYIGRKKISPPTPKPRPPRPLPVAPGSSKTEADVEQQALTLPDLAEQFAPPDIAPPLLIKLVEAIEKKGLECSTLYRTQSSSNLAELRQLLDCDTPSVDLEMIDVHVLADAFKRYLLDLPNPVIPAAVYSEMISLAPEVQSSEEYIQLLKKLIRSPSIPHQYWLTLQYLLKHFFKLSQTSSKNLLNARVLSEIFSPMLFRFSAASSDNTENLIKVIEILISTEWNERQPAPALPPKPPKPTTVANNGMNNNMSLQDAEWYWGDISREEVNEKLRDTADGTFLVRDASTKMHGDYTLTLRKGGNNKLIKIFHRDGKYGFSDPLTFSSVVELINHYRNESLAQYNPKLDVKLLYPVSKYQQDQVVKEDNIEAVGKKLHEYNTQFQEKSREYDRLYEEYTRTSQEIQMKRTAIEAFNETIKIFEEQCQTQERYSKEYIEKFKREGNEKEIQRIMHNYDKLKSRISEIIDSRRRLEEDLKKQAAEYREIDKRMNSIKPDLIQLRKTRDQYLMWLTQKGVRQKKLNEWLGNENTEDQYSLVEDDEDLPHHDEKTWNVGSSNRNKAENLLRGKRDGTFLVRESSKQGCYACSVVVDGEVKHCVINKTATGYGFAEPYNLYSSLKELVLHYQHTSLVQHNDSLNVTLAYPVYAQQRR
Test: PI3Kα cellular assay: T47D pAKT S473 HTRF
Assay type: cell-based
Settings: T47D (H1047R) versus SKBR3 (WT) cells
readout: T47D pAKT S473 HTRF IC50 (H1047R): T47D (H1047R) selectivity over SKBR3 (WT)

{"compound": "Cc1cc(C(C)Nc2ccccc2C(=O)O)c2cc(N3Cc4ccccc4C3)nc(O)c2c1 (centres unmarked) [Compound 51]", "result": "A (A denotes >20-fold)"}
{"compound": "Cc1cc(C(C)Nc2ccccc2C(=O)O)c2cc(-c3ccc(F)cc3)n(C)c(=O)c2c1 (centres unmarked) [Compound 77]", "result": "A (A denotes >20-fold)"}
{"compound": "Cc1cc([C@@H](C)Nc2ccccc2C(=O)O)c2nc(N3CCC(C)(C)CC3)nc(O)c2c1 [Compound 12]", "result": "C (C denotes ≤5-fold)"}
{"compound": "Cc1cc([C@@H](C)Nc2ccccc2C(=O)O)c2cc(-c3ccnc(C4CC4)c3)ncc2c1 [Compound 89]", "result": "A (A denotes >20-fold)"}
{"compound": "Cc1cc([C@@H](C)Nc2ccccc2C(=O)O)c2nc(-c3cccnc3)n(C)c(=O)c2c1 [Compound 137]", "result": "A (A denotes >20-fold)"}
{"compound": "Cc1cc(C(C)Nc2ccccc2C(=O)O)c2nc(-c3ccc(F)cc3)n(C)c(=O)c2c1 (centres unmarked) [Compound 38]", "result": "A (A denotes >20-fold)"}
{"compound": "Cc1cc([C@H](C)Nc2ccccc2C(=O)O)c2nc(N3CCC(C)(C)CC3)ncc2c1 [Compound 7]", "result": "C (C denotes ≤5-fold)"}
{"compound": "Cc1cc([C@H](C)Nc2ccccc2C(=O)O)c2cc(-c3ccnc(C4CC4)c3)n(C)c(=O)c2c1 [Compound 78]", "result": "A (A denotes >20-fold)"}
{"compound": "Cc1cc([C@@H](C)Nc2ccccc2C(=O)O)c2cc(-c3ccc(F)cc3)n(C)c(=O)c2c1 [Compound 76]", "result": "A (A denotes >20-fold)"}
{"compound": "Cc1cc([C@@H](C)Nc2ccccc2C(=O)O)c2nc(-c3ccc(F)cc3)n(C)c(=O)c2c1 (single isomer, unassigned) [Compound 32]", "result": "A (A denotes >20-fold)"}

Batch request: T47D pAKT S473 HTRF IC50 (H1047R): T47D (H1047R) selectivity over SKBR3 (WT) for each of the following compounds.
1. Cc1cc([C@H](C)Nc2ccccc2C(=O)O)c2nc(N3CCC(C)(C)CC3)nc(C#N)c2c1 [Compound 60]
2. Cc1cc([C@@H](C)Nc2ccccc2C(=O)O)c2cc(OC3CCOCC3)ncc2c1 [Compound 132]
3. Cc1cc([C@H](C)Nc2ccccc2C(=O)O)c2cc(-c3ccc4c(c3)c(C)nn4C)ncc2c1 [Compound 83]
4. Cc1cc(C(C)Nc2ccccc2C(=O)O)c2cc(N3CCOCC3)ncc2c1 (centres unmarked) [Compound 37]
5. Cc1cc([C@@H](C)Nc2ccccc2C(=O)O)c2nc(N3CCC(C)(C)CC3)nc(N)c2c1 [Compound 2]
6. Cc1cc(C(C)Nc2ccccc2C(=O)O)c2cc(-c3ccc4c(c3)c(C)nn4C)n(C)c(=O)c2c1 (centres unmarked) [Compound 87]
7. Cc1cc(C(C)Nc2ccccc2C(=O)O)c2nc(-c3ccc4c(c3)c(C)nn4C)n(C)c(=O)c2c1 (centres unmarked) [Compound 40]

C (C denotes ≤5-fold)
A (A denotes >20-fold)
C (C denotes ≤5-fold)
A (A denotes >20-fold)
C (C denotes ≤5-fold)
A (A denotes >20-fold)
A (A denotes >20-fold)

Every entry's value here was drawn from patent US20260130925A1.
